Source: the RNAGym collection of RNA variant scans (doi:10.7554/elife.80360)

Assignment: determine reported self-cleavage for the given variants.
B1: HDV Ribozyme (parent)
chain: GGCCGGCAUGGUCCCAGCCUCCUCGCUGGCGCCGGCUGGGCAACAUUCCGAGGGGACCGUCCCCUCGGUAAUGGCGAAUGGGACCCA

variants of: B1; assay: self-cleavage, relative activity (ratio to wild type); higher = more cleavage; co-transcriptional
Answers are plain numbers.

[
  {
    "RESIDUES": "GGCCGGCAUGGUCCGAGCCUCCUCGCUGGCGCCGGCUGGGCAACAUUCCGCGGGGACCGUCCCCUCGGUAAUGGCGAAUGGGACCCA",
    "EXPERIMENTAL_RESULT": 0.623
  },
  {
    "RESIDUES": "GGCCGGCAUGGUCCCAGCCUCCUCGCUGGCGCCGGCUGGGCAAAAUUCCGAGGGGACCUUCCCCUCGGUAAUGGCGAAUGGGACCCA",
    "EXPERIMENTAL_RESULT": 0.776
  },
  {
    "RESIDUES": "GGCCGGCAUGGUCCCAGCCUCCUCGCUGGCGCCGGCUGGGCAACAAUCCGAGGGGCCCGUCCCCUCGGUAAUGGCGAAUGGGACCCA",
    "EXPERIMENTAL_RESULT": 0.802
  },
  {
    "RESIDUES": "GGCCGGCAUGGUCCCAGCCUCCUAGCUGGCGCCGGCUGGGCAACAUUCCGAGGGGACCGUCCCCUCGGUAAUGGCGAAUGGGGCCCA",
    "EXPERIMENTAL_RESULT": 0.626
  },
  {
    "RESIDUES": "GGCCGGCAUGGUCCCAGCCUCCUCGCUGGCGCCGGCUGGGCAACAUUCCGAAGGGACCGUCCCCUCGGUAAUGGAGAAUGGGACCCA",
    "EXPERIMENTAL_RESULT": 0.166
  },
  {
    "RESIDUES": "GGCCGGCAUGGUCCCUGCCUCCUCGCUGGCGCCGACUGGGCAACAUUCCGAGGGGACCGUCCCCUCGGUAAUGGCGAAUGGGACCCA",
    "EXPERIMENTAL_RESULT": 0.342
  },
  {
    "RESIDUES": "GGCCGGCAUGGUCCCAGCCUCCUCGCUGGCGCCGGCUGGGCAACAUUCCGAGGGGACCGUCCCCUCGGUAAUGGCGAAUCGGGCCCA",
    "EXPERIMENTAL_RESULT": 0.102
  },
  {
    "RESIDUES": "GUCCGGCAUGGUCCCAGCCUCCUCGCUGGCGCCGGCUGGGCAACAUUCCGAGGGGACCGUCCCCUCGGUAAUGGCGAAUGGGAUCCA",
    "EXPERIMENTAL_RESULT": 0.0604
  },
  {
    "RESIDUES": "GGCCGGCAUGGUCCCAGCCUCCUCGCUGGCACCUGCUGGGCAACAUUCCGAGGGGACCGUCCCCUCGGUAAUGGCGAAUGGGACCCA",
    "EXPERIMENTAL_RESULT": 0.0863
  },
  {
    "RESIDUES": "GGCCGGCAUGGUCCCAGCCUCCUCGCUGGCGCCGGCUGGGCACCAUUCCGAGGGGACCGUCCCCUCGGGAAUGGCGAAUGGGACCCA",
    "EXPERIMENTAL_RESULT": 0.68
  }
]

Below are 3 variants. Give each one its self-cleavage.
1. GGCCGGCAUGCUCCCAGCCUCCUCGCUGGCGCCGGCUGGGCAACAUUCCGAGGGGACCGUCCCCUCGGUAAAGGCGAAUGGGACCCA
2. GGCCGGCACGGUCCCAGCGUCCUCGCUGGCGCCGGCUGGGCAACAUUCCGAGGGGACCGUCCCCUCGGUAAUGGCGAAUGGGACCCA
3. GGCCGGCAUGGUCCCAGCCUCCUCGCUGGCGCCGGCUGGGCAACAUUCCGAGAGGACCGUCCCCUCGGUAAUGGCGAAUUGGACCCA

### Response
0.0875
0.0519
0.234
